# system-under-test: N-terminal Xaa-Pro-Lys N-methyltransferase 1 (Homo sapiens)
# measurement-notes: Confirmatory qHTS for Inhibitors of N-terminal methyltransferase 1 (NTMT1): MTaseGlo Assay (AID 1645874); further: nearly all actives have a fitted effect of over 65% in size
# condition-label: NTMT1 enzyme, MTase-Glo SAH luminescence; series mostly up to 100 µM
Inconclusive results are not listed. Active and inactive are the calls of the source. The call rests on the fitted dose curve; in most records, active means well fitted inhibition curve with a large enough effect; inconclusive means small, poorly fitted or top-dose-only effect; inactive means no such curve, though single readings can be large or run the other way.
Respond only with the outcome that fits, drawn from y = active, n = inactive

Record lookup: outcome of this test for COc1cc(N2CCN(C(C)=O)CC2)ccc1Nc1ncc(Cl)c(Nc2ccc(N3CCN(C(C)=O)CC3)cc2OC)n1 ?
y

Record lookup: outcome of this test for CC(=O)C1CCC2C3CCC4=CC(=O)CCC4(C)C3CCC12C (stereo not given) ?
n

Record lookup: outcome of this test for CC(C)=CCC/C(C)=C/CC/C(C)=C/CSc1ccccc1C(=O)O ?
y

Record lookup: outcome of this test for CS(=O)(=O)c1ccc(-c2cn3ccccc3n2)cc1 ?
y

Record lookup: outcome of this test for N#C/C(=C\c1ccc(-c2ccc(Cl)c(C(=O)O)c2)o1)c1nc2ccccc2[nH]1 ?
n

###

# system-under-test: Cytochrome P450 1A2 (Homo sapiens) (UniProt P05177)
# Sequence (P05177 whole entry, looked up): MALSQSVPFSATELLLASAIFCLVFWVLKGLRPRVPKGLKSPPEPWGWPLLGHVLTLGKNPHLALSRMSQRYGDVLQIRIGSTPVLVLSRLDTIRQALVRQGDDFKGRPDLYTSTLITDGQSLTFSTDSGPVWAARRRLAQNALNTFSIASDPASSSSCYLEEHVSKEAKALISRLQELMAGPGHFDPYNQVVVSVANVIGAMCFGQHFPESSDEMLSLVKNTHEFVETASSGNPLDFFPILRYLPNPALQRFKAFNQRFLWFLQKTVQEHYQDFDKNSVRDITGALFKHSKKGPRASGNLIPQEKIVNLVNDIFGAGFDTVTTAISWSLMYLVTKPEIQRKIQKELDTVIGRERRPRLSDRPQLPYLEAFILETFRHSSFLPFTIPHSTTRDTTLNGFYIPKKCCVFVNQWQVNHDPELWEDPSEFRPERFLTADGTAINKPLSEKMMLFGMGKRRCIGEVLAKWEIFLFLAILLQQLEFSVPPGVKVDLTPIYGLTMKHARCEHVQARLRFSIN
# measurement-notes: p450-cyp1a2 (AID 410)
# condition-label: recombinant CYP1A2, luciferin-ME demethylation, luminescence; series mostly up to 57 µM
# Method: The P450 gene superfamily is involved in metabolism and the clearance of xenobiotics. This assay used human CYP1A2 to measure the demethylation of luciferin 6' methyl ether (Luciferin-ME; Promega-Glo) to luciferin. The luciferin is then measured by luminescence after the addition of a luciferase detection regeant. Luciferin-ME concentration in the assay was equal to its Km for CYP1A2. NCGC Assay Protocol Summary: […]
Results filed as inconclusive are left out. Activity calls are given as the source filed them. Calls come from the whole dose curve. Non-standard residues stand in square brackets, D forms with d. Residues, ends and D or L forms follow the SMILES beside them.
Respond only with the outcome that fits, drawn from active, inactive

Record lookup: outcome of this test for Cc1ccccc1N=C(N)Nc1ccccc1C ?
inactive

Record lookup: outcome of this test for CSCC[C@H](C=O)NC(=O)[C@H](CC(C)C)NC(=O)[C@H](CC(C)C)NC(C)=O (Ac-Leu-Leu-[dM]-aldehyde) ?
inactive

Record lookup: outcome of this test for O=C(c1c(O)c2ccc(Cl)cc2[nH]c1=O)C1CC1 ?
active

Record lookup: outcome of this test for O=C(Cc1ccccc1)Nc1nc2ccc(Cl)cc2c2nc(-c3ccco3)nn12 ?
active

Record lookup: outcome of this test for N[C@H](C(=O)O)c1ccc(C(=O)O)c(O)c1 ?
inactive

Record lookup: outcome of this test for N[C@@H](C(=O)O)c1ccc(C(=O)O)c(C(=O)O)c1 ?
inactive

Record lookup: outcome of this test for O=C(N/N=C\c1ccccc1O)c1ccccc1O ?
active

Record lookup: outcome of this test for CC[C@@H](C)[C@H]1O[C@]2(CC[C@@H]1C)C[C@@H]1C[C@H](C/C=C(/C)[C@H](O[C@@H]3C[C@H](OC)[C@H](O[C@@H]4C[C@H](OC)[C@@H](O)[C@H](C)O4)[C@H](C)O3)[C@@H](C)/C=C\C=C3CO[C@@H]4[C@H](O)C(C)=C[C@@H](C(=O)O1)[C@]34O)O2 (tested in a mixture with another compound) ?
inactive

Record lookup: outcome of this test for CCCCC#Cc1nc(NC)c2ncn([C@@H]3O[C@@H](CO)[C@H](O)[C@H]3O)c2n1 ?
active

Record lookup: outcome of this test for N[C@@]1(C(=O)O)CN[C@H](C(=O)O)C1 ?
active

Record lookup: outcome of this test for COc1cc(OC)c2cc(-c3ccncc3)cnc2c1 ?
active

Record lookup: outcome of this test for C=C[C@@]1(C)CC(=O)[C@@]2(O)[C@@]3(C)[C@@H](O)CCC(C)(C)[C@@H]3[C@H](OC(=O)CCN(C)C)[C@H](OC(C)=O)[C@@]2(C)O1 ?
inactive

Record lookup: outcome of this test for O=S(c1ccccc1)c1ccc2nnnn2n1 (centres undefined) ?
active

Record lookup: outcome of this test for O=C(Nc1ccccc1)[C@@]12C[C@@H]1/C(=N/O)c1ccccc1O2 ?
active

Record lookup: outcome of this test for COCCNC(=O)COc1ccc(OCCNC[C@@H](O)COc2ccccc2)cc1 ?
inactive

Record lookup: outcome of this test for NCCC(=O)O ?
inactive

Record lookup: outcome of this test for Clc1cccc(C=NC=Nc2cccc(Cl)c2)c1 ?
active

Record lookup: outcome of this test for N#C[C@H](Cc1ccc(O)cc1)c1ccc(O)cc1 ?
active

Record lookup: outcome of this test for COC(=O)c1c(-c2cc(OC)c(OC)c(OC)c2)c2ccnc(OCc3ncccn3)c2c(=O)n1Cc1ccnc(C)c1 ?
inactive

###

# measurement-notes: Cytotoxicity qHTS for assessment of Hepg2 cells membrane integrity screened against the NCATS CANVASS Library (AID 1347387)
# condition-label: HepG2 LDH release (CytoTox-ONE) fluorescence, 5 h; series mostly up to 46.1 µM
Inconclusive results are not listed. The source made the active and inactive calls. The call rests on the fitted dose curve; in most records, active means well fitted curve in the direction sought with a large enough effect; inconclusive means small, poorly fitted or top-dose-only effect, or effect the other way, or another doubt; inactive means no such curve, though single readings can be large or run the other way.
measure-name: cytotoxicity (LDH release)

Known cytotoxicity (LDH release) results, listed for orientation:
| compound | meas-value |
| --- | --- |
| C=C1C(=O)C[C@H]2C[C@@H]1[C@]2(C)CCC=C(C)C | inactive |
| C[C@@H](CCC[C@]1(C)C(=O)C=C[C@]23C[C@H]4C[C@H](O[C@@]4(C)C2)C31)C(=O)N[C@@H](CO)C(=O)O (some centres undefined) | inactive |
| O=C1CC(c2cc(O)cc(O)c2)Oc2cc(O)ccc21 (centres undefined) | inactive |
| C=C1[C@H]2CC[C@@]3(C=CC(=O)[C@@](C)(CCC(=O)Nc4c(O)ccc(C(=O)O)c4O)C3C2)[C@H]1O (some centres undefined) | inactive |

Given the compound OCc1ccc2ocnc2c1 , write its reported cytotoxicity (LDH release).
inactive

Given the compound COc1ccc([C@@H]2c3cc(OC)c(OC)cc3C(=O)[C@H](C)C2C)cc1OC (some centres undefined) , write its reported cytotoxicity (LDH release).
0.689 [at 9.19 µM] (inactive)

Given the compound C[C@@]12CCC[C@@](C)(C(=O)O)[C@H]1C[C@@H](O)[C@]13C[C@H]4C[C@H](O[C@@]4(C)C1)[C@@H]23 , write its reported cytotoxicity (LDH release).
inactive

Given the compound CC1C(=O)C23CCC1C[C@]21O[C@@H]2C(C)(C)C=CC(=O)[C@@]23COC1=O (some centres undefined) , write its reported cytotoxicity (LDH release).
inactive

Given the compound C=C(C)C(=O)O[C@H]1C[C@H](C)[C@@H](OC(C)=O)CC[C@@]2(C)O[C@@H]2[C@H]2OC(=O)C(COC(C)=O)=C12 , write its reported cytotoxicity (LDH release).
inactive

###

# system-under-test: M-phase phosphoprotein 8 (Homo sapiens) (UniProt Q99549)
# Sequence (Q99549 whole entry, looked up): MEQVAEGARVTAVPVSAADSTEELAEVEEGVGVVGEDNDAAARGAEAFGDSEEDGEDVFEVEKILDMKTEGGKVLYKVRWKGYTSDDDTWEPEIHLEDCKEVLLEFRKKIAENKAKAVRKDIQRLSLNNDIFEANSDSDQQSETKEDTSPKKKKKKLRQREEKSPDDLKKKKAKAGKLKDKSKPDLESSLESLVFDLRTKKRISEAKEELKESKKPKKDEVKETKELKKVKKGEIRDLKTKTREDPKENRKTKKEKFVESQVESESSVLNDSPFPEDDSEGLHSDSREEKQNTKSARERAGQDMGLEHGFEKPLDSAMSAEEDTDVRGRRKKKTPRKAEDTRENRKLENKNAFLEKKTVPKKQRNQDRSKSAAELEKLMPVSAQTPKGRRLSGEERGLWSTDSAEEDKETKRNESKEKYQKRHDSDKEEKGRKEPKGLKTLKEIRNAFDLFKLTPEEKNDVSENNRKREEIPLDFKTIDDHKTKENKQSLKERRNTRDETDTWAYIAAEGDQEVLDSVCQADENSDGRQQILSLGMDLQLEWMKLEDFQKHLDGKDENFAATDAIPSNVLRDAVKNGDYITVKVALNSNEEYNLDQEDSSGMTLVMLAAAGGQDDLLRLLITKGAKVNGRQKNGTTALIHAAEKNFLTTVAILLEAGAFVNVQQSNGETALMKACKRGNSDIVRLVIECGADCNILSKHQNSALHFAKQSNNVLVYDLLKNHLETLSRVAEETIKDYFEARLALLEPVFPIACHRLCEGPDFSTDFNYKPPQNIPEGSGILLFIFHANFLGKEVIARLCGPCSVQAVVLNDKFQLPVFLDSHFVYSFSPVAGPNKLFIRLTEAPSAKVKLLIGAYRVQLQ
# measurement-notes: qHTS Validation Assay for Inhibitors for MPP8 Chromodomain Interactions with Methylated Histone Tails (AID 488949); further: nearly all actives have a fitted effect of over 55% in size
# condition-label: AlphaScreen MPP8 binding to H3K9me3 peptide; series mostly up to 114 µM
Records with an inconclusive call do not appear. Activity calls are given as the source filed them. The call rests on the fitted dose curve; in most records, active means well fitted inhibition curve with a large enough effect; inconclusive means small, poorly fitted or top-dose-only effect; inactive means no such curve, though single readings can be large or run the other way.
Respond only with the outcome that fits, drawn from YES = active, NO = inactive

Record lookup: outcome of this test for Cn1cnc2c(NC3CCCC3)ncnc21 ?
NO

Record lookup: outcome of this test for Cc1cccc(/C=C/c2ccccc2)n1 ?
NO

Record lookup: outcome of this test for C[C@H](Cc1ccccc1)Nc1ncnc2c1ncn2[C@@H]1O[C@H](CO)[C@@H](O)[C@H]1O ?
NO

Record lookup: outcome of this test for CCCn1c(=O)c2[nH]c(-c3ccc(OCC(=O)Nc4ccc(C#N)cc4)cc3)nc2n(CCC)c1=O ?
NO

Record lookup: outcome of this test for NC(CCC(=O)NCS(=O)(=O)O)C(=O)O (stereo unspecified) ?
NO

Record lookup: outcome of this test for COc1ccccc1NC(=O)Nc1nc(-c2cccnc2)nc2ccccc12 ?
NO

Record lookup: outcome of this test for C/C=C/CC(C)C(O)C1C(=O)NC(CC)C(=O)N(C)CC(=O)N(C)C(CC(C)C)C(=O)NC(C(C)C)C(=O)N(C)C(CC(C)C)C(=O)NC(C)C(=O)NC(C)C(=O)N(C)C(CC(C)C)C(=O)N(C)C(CC(C)C)C(=O)N(C)C(C(C)C)C(=O)N1C (stereo unspecified) ?
NO

Record lookup: outcome of this test for Cc1ccc(OCC(O)C(C)NC(C)C)c2c1CCC2 (stereo unspecified) ?
NO

Record lookup: outcome of this test for COc1[nH]c2ccc(F)cc2c1C(=O)OCC1CCN(CCNS(C)(=O)=O)CC1 ?
NO

Record lookup: outcome of this test for S=C(Nc1ccccc1)Nc1nccs1 ?
NO

Record lookup: outcome of this test for NCCNS(=O)(=O)c1cccc2cnccc12 ?
NO

Record lookup: outcome of this test for NCCCCCCNS(=O)(=O)c1cccc2c(Cl)cccc12 ?
NO

Record lookup: outcome of this test for C[N+](C)(C)CCC(=O)c1cccc2ccccc12 ?
YES

Record lookup: outcome of this test for CCCCCCCCCCCCC/C=C/[C@@H](O)[C@@H](N)CO ?
NO

Record lookup: outcome of this test for COC(=O)c1c(-c2cc(OC)c(OC)c(OC)c2)c2ccnc(OCc3ncccn3)c2c(=O)n1Cc1ccnc(C)c1 ?
NO

Record lookup: outcome of this test for CN1C2CCCC1CC(NC(=O)c1nn(C)c3ccccc13)C2 (stereo unspecified) ?
NO

Record lookup: outcome of this test for O=C(Nc1cc(C(=O)Nc2ccc(S(=O)(=O)O)cc2S(=O)(=O)O)cc(C(=O)Nc2ccc(S(=O)(=O)O)cc2S(=O)(=O)O)c1)Nc1cc(C(=O)Nc2ccc(S(=O)(=O)O)cc2S(=O)(=O)O)cc(C(=O)Nc2ccc(S(=O)(=O)O)cc2S(=O)(=O)O)c1 ?
YES

Record lookup: outcome of this test for N.N.O=C(O)C1(C(=O)O)CCC1.[Pt+2] ?
YES

Record lookup: outcome of this test for O=C1c2ccccc2C(=O)c2c(NCCc3ccc(O)cc3)ccc(NCCc3ccc(O)cc3)c21 ?
YES

Record lookup: outcome of this test for Cc1cccc(C)c1NC(=O)C[N+](C)(C)C ?
NO

Record lookup: outcome of this test for O=C(O)c1cc(=O)c2ccc(Cl)cc2[nH]1 ?
NO
